Item-by-item account of MIC
System: Pseudomonas aeruginosa
Assay: ≥ marks a high value that may be exact or a test limit, other limits are often not marked, values filed in µg/mL are converted to µM
Kindly provide the numeric value in µM only, without the unit symbol.

Here is how some compounds turned out for MIC.
CC[C@H](C)[C@H](NC(=O)CN)C(=O)N[C@@H](CCSC)C(=O)N[C@@H](CO)C(=O)N[C@@H](CO)C(=O)N[C@@H](CC(C)C)C(=O)N[C@@H](CCSC)C(=O)N[C@@H](CCCCN)C(=O)N[C@@H](CCCCN)C(=O)N[C@@H](CC(C)C)C(=O)N[C@@H](C)C(=O)N[C@@H](C)C(=O)N[C@@H](Cc1cnc[nH]1)C(=O)N[C@H](C(=O)N[C@@H](CCCCN)C(=O)N[C@@H](CCCCN)C(N)=O)[C@@H](C)CC [GIMSSLMKKLAAHIKK]; 46
CC[C@H](C)[C@H](NC(=O)[C@H](CCCCN)NC(=O)CNC(=O)[C@H](Cc1c[nH]c2ccccc12)NC(=O)[C@H](CC(N)=O)NC(=O)[C@@H](N)CCCCN)C(=O)N[C@@H](CC(C)C)C(=O)N[C@@H](CCCCN)C(=O)N[C@@H](Cc1cnc[nH]1)C(=O)N[C@H](C(=O)N[C@H](C(=O)N[C@@H](CCCCN)C(N)=O)[C@@H](C)CC)[C@@H](C)CC [KNWGKILKHIIK]; 31.7
CC[C@H](C)[C@H](NC(=O)[C@H](CCCN=C(N)N)NC(=O)[C@H](CCCCN)NC(=O)[C@H](C)NC(=O)[C@@H](NC(=O)[C@@H](N)CCCCN)[C@@H](C)CC)C(=O)N[C@@H](Cc1c[nH]c2ccccc12)C(=O)N[C@@H](CCCCN)C(=O)N[C@H](C(=O)N[C@@H](CC(C)C)C(=O)N[C@@H](CCCN=C(N)N)C(=O)N[C@@H](CCCN=C(N)N)C(=O)N[C@@H](CCCN=C(N)N)C(N)=O)[C@@H](C)CC [KIAKRIWKILRRR]; 4.5

# input compound: CC[C@H](C)[C@H](NC(=O)[C@H](CC(C)C)NC(=O)[C@H](Cc1cnc[nH]1)NC(=O)CNC(=O)[C@H](CC(C)C)NC(=O)[C@@H](NC(=O)[C@H](CCCCN)NC(=O)[C@H](CO)NC(=O)[C@H](Cc1c[nH]c2ccccc12)NC(=O)[C@H](CCSC)NC(=O)[C@@H](N)CCCCN)[C@@H](C)CC)C(=O)N[C@@H](CCCN=C(N)N)C(N)=O [KMWSKILGHLIR] ; wanted: its MIC 73.3

# input compound: CC[C@H](C)[C@H](NC(=O)[C@H](CC(C)C)NC(=O)[C@H](CCCCN)NC(=O)[C@H](CC(C)C)NC(=O)[C@H](CC(C)C)NC(=O)[C@H](CCCCN)NC(=O)[C@H](CCCN=C(N)N)NC(=O)[C@H](Cc1ccccc1)NC(=O)[C@H](CC(C)C)NC(=O)[C@H](CCCCN)NC(=O)[C@H](CCCN=C(N)N)NC(=O)[C@H](CC(C)C)NC(=O)[C@@H](N)CCCCN)C(=O)N[C@@H](CCCN=C(N)N)C(=O)N[C@@H](CCCCN)C(=O)N[C@@H](CC(C)C)C(=O)N[C@@H](CC(C)C)C(=O)N[C@@H](CCCN=C(N)N)C(=O)O [KLRKLFRKLLKLIRKLLR] ; wanted: its MIC 16
